assay: NCI Yeast Anticancer Drug Screen. Data for the bub3 strain (AID 167); details: S. cerevisiae bub3 mutant strain, at 50.0 µM, active compounds read high
About 79,000 compounds went through this panel and 15% of them were active in at least one assay; those are over-represented in the sample as a whole.
outcome measure: growth inhibition (%)

| molecule | reported |
| --- | --- |
| N#CCCNC=O | 6.3 |
| Oc1ccc2c(c1)CCC2 | -10.8 |
| OCC(CBr)(CBr)CBr | 4.45 |
| COC(=O)N/N=C/c1ccccc1Cl | -12.5 |
| COCCC(=O)SCc1ccccc1 | -16.5 |
| CC(C(OC(=O)C1c2ccccc2-c2ccccc21)c1ccccc1)N(C)C (stereo not given) | 99.4 |
| COC(=O)CCCC(=O)O | 2.9 |
| c1ccc([P+](c2ccccc2)(c2ccccc2)C2c3ccccc3CCc3ccccc32)cc1 | 99.4 |
| CCCCCCOC(=O)/C=C1/OC(=O)c2ccccc21 | 11.4 |
| C1CSCCSCCCSC2CCCCC2SC1 (stereo not given) | 5 |
| C/C(CC(=O)N(C(C)C)C(C)C)=N\NC(=O)c1ccncc1 | -10.7 |
| CCOC(=O)c1c(SC(=O)c2ccc(OC)cc2)n(-c2ccccc2)c(=S)n(-c2ccccc2)c1=O | 16.8 |
| CC1CC(=O)c2c(O)ccc(O)c21 (stereo not given) | -8.15 |
| C[N+]1(C)CCCC(c2ccccc2)(c2ccccc2)C(O)C1 (stereo not given) | -2.65 |
| O=[n+]1c2c(n([O-])c3cc(Cl)c(Cl)cc31)CCC2 | 4 |
| Nc1ncnc2c1ccn2Cc1c(Cl)cccc1Cl | 23.9 |
| CC1=C2CC[C@@]3(C)C(=CCC3O)C2(C)CCC1=O (stereo not given in full) | -8.9 |
| COc1cc(/C=N/NC(N)=O)cc(OC)c1O | 33.3 |
| CCc1nc2c(c(=O)[nH]1)C(c1ccc(Cl)cc1)C(C)(C)O2 (stereo not given) | 1.1 |
| CC(=O)c1ccc(C2CCC[C@H]2c2ccc(C(C)=O)cc2)cc1 (stereo not given in full) | 9.3 |
| CC(C(O)C(F)(F)F)[N+](=O)[O-] (stereo not given) | -2.05 |
| CCOC(=O)CCC(NC(=O)c1ccc(Nc2nc3cc(C(F)(F)F)ccc3nc2-c2ccccc2)cc1)C(=O)OCC (stereo not given) | -5.35 |
| O=C(Nc1cc2cc([N+](=O)[O-])ccc2oc1=O)c1cccs1 | -40.2 |
| CN1C/C(=C\c2ccccc2)C2=NN(C(N)=S)[C@H](c3ccccc3)[C@@H]2C1 | -19.8 |
| COc1cc(C2c3cc4c(cc3OC(NCCc3ccccc3)C2C)OCO4)cc(OC)c1OC (stereo not given) | 0.6 |
